system: tilapia IgM; experiment: Serum antibody levels of tilapia after immunization with epitope peptides (ELISA); assay type: in vivo, Nile tilapia (Oreochromis niloticus); settings: 20 µg peptide i.m. with Freund's adjuvant, 7-28 days
outcome.measure: immunogenicity (serum antibody titer) after single immunization

>>> measured("DAIGMGSIGVMLAYMVRRKC [S1WT]")
"robust immune responses"
>>> measured("NIEWGDEVDLEM [S10WT]")
"robust immune responses"
